- System: Human papillomavirus type 1a protein E7 (residues 44-93)
- experimentalProtocol: small molecules binding HPV E7 44-93 – biochemical, small-molecule microarray, residues 44-93, 635 nm fluorescence, primary screen (AID 1108);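 note: E7 fragment applied at 1 µg/mL in TBST for 1 h at 4 C; score combines spot fluorescence with its signal to noise ratio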
- assaySetup: fluorescence 635 nm, higher = more signal
observable: composite z-score
Write no unit; give the number alone.

Some compounds with known composite z-score results, for comparison:
compound: CCOC(=O)C1=CC[C@@H](c2ccc(OC)cc2)N(S(=O)(=O)c2ccc(C)cc2)[C@H]1c1ccc(C)cc1
composite z-score: 1.33
//
compound: C=C(CCCC)/C(=C/C[C@H](OC(=O)c1ccncc1)c1cccc(OCCO)c1)c1cnc2ccccc2c1
composite z-score: 1.39
//
compound: COC(=O)[C@H](Cc1ccc(O)cc1)N[C@@H](/C=C/C1CC1)[C@H](O)Cc1ccccc1
composite z-score: -0.367

The recorded composite z-score for CC1CC/C=C\[C@H]2OC34C=CCN(Cc5ccccc5)C(=O)[C@H]3N(CCCCCCO)C(=O)[C@@H]4C2C(=O)O1 (some centres undefined) is -0.504

The recorded composite z-score for `COc1ccc([Si](C)(C)[C@@H]2[C@@H](CC(=O)N(CCO)Cc3ccccc3)O[C@]3(C(=O)N(Cc4ccc(I)cc4)c4ccccc43)[C@H]2C)cc1` is 0.684

The recorded composite z-score for CC(C)(C)N1CC=CC23O[C@@H]4C=CCCOC(=O)C4[C@H]2C(=O)N(CCCCCCO)[C@@H]3C1=O (some centres undefined) is 0.315

The recorded composite z-score for `O=C1O[C@H](c2ccccc2)[C@H](c2ccccc2)N2[C@H]1[C@@H](C(=O)O)[C@]1(C(=O)Nc3ccc(C#CCCO)cc31)[C@H]2c1ccc(OCCO)cc1` is 1.12

---

- system: Neurogenic locus notch homolog protein 2 (Homo sapiens)
- experimentalProtocol: small molecules binding Notch2 protein – biochemical, small-molecule microarray, 635 nm fluorescence, stem cell growth factors, primary screen (AID 1073)
- assaySetup: higher = more signal
observable: composite z-score
Write no unit; give the number alone.

Some molecules with known composite z-score results, for comparison:
molecule: COC(=O)[C@@]1(Cc2ccccc2)N=C(c2ccc(OCCCO)cc2)O[C@H]1c1ccccc1CN=[N+]=[N-]
assayResult: 0.33
--
molecule: CC1CC/C=C\[C@H]2OC34C=CCN(Cn5nnc6ccccc65)C(=O)[C@H]3N(CCCCCCO)C(=O)[C@@H]4C2C(=O)O1 (some centres undefined)
assayResult: -0.964
--
molecule: CCOC(=O)C[C@H]1[C@H](OC(=O)c2ccccc2-c2ccccc2)[C@@H](NC(=O)C2CCCCC2)c2cc(OCCCO)ccc2N1C(=O)c1ccc2ccccc2n1
assayResult: 0.813
--
molecule: O=C(NCCN1CCOCC1)[C@@H]1c2ccccc2C(=O)N(Cc2ccc(OC(F)(F)F)cc2)[C@H]1c1ccc(CO)cc1
assayResult: 0.0161
--
molecule: C=CC[C@@]1(C(=O)N(C)C)N=C(c2ccc(OCCCO)cc2)O[C@@H]1c1ccccc1CN=[N+]=[N-]
assayResult: 1.61
--
molecule: [N-]=[N+]=NCc1ccccc1[C@@H]1OC(c2ccc(OCCCO)cc2)=N[C@]1(Cc1ccccc1N=[N+]=[N-])C(=O)O
assayResult: 1.55

The recorded composite z-score for `CC(C)N1C(=O)c2ccccc2[C@](C)(C(=O)NCC(F)(F)F)[C@@H]1c1ccc(CO)cc1` is -0.334

The recorded composite z-score for `NCCCCCCNC(=O)[C@@H]1C[C@@H]2C(=O)N3CCC[C@H]3C(=O)N2[C@@H]1c1cccc(OCCO)c1` is 0.0828

The recorded composite z-score for CC(=O)OCC1C2CC[C@H]3C(OCc4ccc(F)cc4C(F)(F)F)OC[C@]4(C)[C@H]3C2=C(CN4C(=O)OC(C)(C)C)[C@H](C)C1COC(C)=O (some centres undefined) is 0.101

---

- System: Fibrinogen (Alexa647-labelled)
- experimentalProtocol: Alexa647-fibrinogen binding to printed small molecules – biochemical, small-molecule microarray, 635/667 nm fluorescence, artefact control for SMM control-protein annotation, profiling panel (AID 1131);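 note: z-score merges 667 nm fluorescence with per-spot signal-to-noise over triplicate slides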
- assaySetup: fibrinogen-A647 binding fluorescence, higher = more signal
The reader will find reported composite z-score values listed item by item below.
Write no unit; give the number alone.

compound: CCOC(=O)C[C@H]1[C@H](OC(=O)Cc2ccc3c(c2)OCO3)[C@@H](NC(=O)Cc2ccc(OC)cc2)c2cc(OCCCO)ccc2N1C(=O)Cc1ccc(OC)cc1
composite z-score: 0.239
--
compound: NC(=O)NCC#Cc1ccc2c(c1)[C@]1(C(=O)N2)[C@H](c2ccc(OCCO)cc2)N2[C@H](c3ccccc3)[C@H](c3ccccc3)OC(=O)[C@H]2[C@@H]1C(=O)NC[C@H](O)c1ccccc1
composite z-score: 0.879
--
compound: CC(C)=CCCC=C(C)C(O)C1C=CC2C(=O)N(c3ccccc3)C(=O)C2N1Nc1ccc(C#N)cc1 (centres undefined)
composite z-score: 0.972
--
compound: COC(=O)[C@]1(CCC(=O)OC(C)(C)C)N=C(c2ccc(OCCCO)cc2)O[C@@H]1c1ccccc1N=[N+]=[N-]
composite z-score: -0.306
--
compound: CCCCC(O)C1C=CC2C(=O)N(c3ccccc3)C(=O)C2N1Nc1ccc(C#N)cc1 (centres undefined)
composite z-score: 0.981
--
compound: CC1CC/C=C\[C@H]2OC34C=CCN(Cc5ccccc5)C(=O)[C@H]3N(CCCCCCO)C(=O)[C@@H]4C2C(=O)O1 (some centres undefined)
composite z-score: -1.31
--
compound: CCCC=C(CCC)[C@@H](NC(=O)OCC(C)C)c1ccc(C(=O)OC)cc1
composite z-score: 0.441
--
compound: COC(=O)[C@@]1(Cc2ccc(OC)cc2)[C@H]2c3cc(C(=O)N(C)C)[nH]c3C[C@H]2CN1C(=O)c1ccccc1
composite z-score: 0.804

The recorded composite z-score for `[N-]=[N+]=Nc1ccccc1C[C@@]1(C(=O)NCc2ccccc2)N=C(c2ccc(OCCCO)cc2)O[C@@H]1c1ccccc1N=[N+]=[N-]` is 0.664

The recorded composite z-score for `COc1ccc([Si](C)(C)[C@H]2[C@H](CCO)O[C@@]3(C(=O)N(Cc4cccc(N5C(=O)c6ccccc6Oc6ccccc65)c4)c4ccccc43)[C@@H]2C)cc1` is 0.327

The recorded composite z-score for `CN(C)CCCC[C@@H]1NC(=O)[C@@H]2C[C@H](C(=O)NCCCCCN)[C@H](c3cccc(OCCO)c3)N2C1=O` is 0.851

The recorded composite z-score for `O=C1O[C@@H](c2ccccc2)[C@@H](c2ccccc2)N2[C@@H](c3ccc(OCCO)cc3)[C@]3(C(=O)Nc4ccc(C#CC5(O)CCCCCC5)cc43)[C@@H](C(=O)O)[C@H]12` is 0.832

The recorded composite z-score for CCCCCC1=C2CNC(Cc3ccccc3)(C(=O)OC)C=C2C(C)C1=O (centres undefined) is 0.837

---

- experimentalProtocol: calcein-AM signal in unstimulated myeloma cells – cell-based, calcein-AM fluorescence, 48 h, PK04 Diversity Set, profiling panel (AID 1166);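 note: cells grown under basal conditions without added stimulus; test concentration not given here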
- assaySetup: RPMI8226 myeloma viability, higher = more signal
observable: z-score
Write no unit; give the number alone.

compound: CC(C)=CCCC(C)=CC(O)C1C=CC2C(=O)NC(=O)C2N1Nc1ccc(Cl)cc1Cl (centres undefined)
z-score: -4.11
//
compound: NC(=O)NCC#Cc1ccc2c(c1)[C@]1(C(=O)N2)[C@H](c2ccc(OCCO)cc2)N2[C@H](c3ccccc3)[C@H](c3ccccc3)OC(=O)[C@H]2[C@@H]1C(=O)O
z-score: 0.111
//
compound: COC(=O)[C@@]1(Cc2ccc(F)cc2)[C@H]2c3cc(C(=O)N4CCCC4)n(CCc4ccccn4)c3C[C@H]2CN1C(=O)c1ccccc1
z-score: -0.431

The recorded z-score for `CCOC(=O)C[C@H]1[C@H](OC(=O)c2ccccc2-c2ccccc2)[C@@H](NC(=O)c2ccc3ccccc3c2)c2cc(OCCCO)ccc2N1C(=O)Cc1ccc(OC)cc1` is -0.543

---

The reader will find reported composite z-score values listed item by item below.
- experimentalProtocol: probe aShh binding to arrayed compounds – biochemical, biotinylated probe, 635/667 nm fluorescence, primary screen (AID 1114);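 note: probe is biotin-labelled aShh protein from a stem cell growth factor screen; measures binding of labelled protein to compounds printed on the slide; score merges feature fluorescence at 667 nm with signal-to-noise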
- assaySetup: small-molecule microarray, higher = more signal

Some compounds with known composite z-score results, for comparison:
compound: COC(=O)[C@H](Cc1ccccc1)N1CC2=CCCC=C[C@@H]2[C@H]1[C@H](O)Cc1ccccc1
composite z-score: 0.427
//
compound: [N-]=[N+]=Nc1ccccc1C[C@]1(C(=O)N2CCOCC2)N=C(c2ccc(OCCCO)cc2)O[C@H]1c1ccccc1N=[N+]=[N-]
composite z-score: 0.275
//
compound: O=C(NCC(O)CO)C1N=C(c2ccc(OCCCO)cc2)N(c2ccccc2)O1 (stereo not drawn)
composite z-score: -0.232
//
compound: CCCCC(O)C1C=CC2C(=O)N(c3ccccc3)C(=O)C2N1Nc1ccc([N+](=O)[O-])cc1 (stereo not drawn)
composite z-score: 0.036
//
compound: C=C(COC)C(=O)CC[C@H](OC(=O)c1cccnc1)c1ccc(OCCO)cc1
composite z-score: -0.379
//
compound: C=C(CCCC)/C(=C/C[C@H](OC(=O)c1ccncc1)c1cccc(OCCO)c1)c1cnc2ccccc2c1
composite z-score: -0.0035

The recorded composite z-score for `O=C1O[C@@H](c2ccccc2)[C@@H](c2ccccc2)N2[C@@H](c3ccccc3OCCO)[C@]3(C(=O)Nc4ccc(C#CCCO)cc43)[C@@H](C(=O)NC[C@H](O)c3ccccc3)[C@H]12` is -0.212

The recorded composite z-score for `O=C(NCc1ccc(F)cc1)[C@H]1C[C@H]2C(=O)N3CCC[C@H]3C(=O)N2[C@H]1c1ccc(O)cc1` is -0.366
